Assay: qHTS assay to identify small molecule antagonists of the sonic hedgehog signaling (Shh) pathway (AID 1259369); also: nearly all actives have a fitted effect of over 45% in size
Conditions: NIH/3T3 Gli1-Luc reporter, Shh antagonist, luminescence 24 h; series mostly up to 92.4 µM
Text: U.S. Tox21 Program National Center for Advancing Translational Sciences [NCATS] NIH Chemical Genomics Center [NCGC] U.S. Environmental Protection Agency [EPA] National Institutes of Environmental Health Sciences [NIEHS] National Toxicology Program [NTP] U.S. Food and Drug Administration [FDA] Tox21 Assay Overview: The sonic hedgehog (Shh) pathway is essential for normal embryonic development. Dysregulation of the Shh pathway can cause severe developmental defects in organs. […]
Results filed as inconclusive are left out. The source made the active and inactive calls. Calls follow the shape of the full dose curve.
Classes used: active, inactive

Compound	Assigned label
c1ccncc1	inactive
COC(=O)C1=C(C)NC(C)=C(C(=O)OCCN(C)Cc2ccccc2)C1c1cccc([N+](=O)[O-])c1 (configuration not stated)	active
COC(C)COC(C)COC(C)CO (configuration not stated)	inactive
Cc1ccc2c(n1)Oc1ccc(C(C)C(=O)OCC(=O)N(C)C)cc1C2 (configuration not stated)	inactive
CCCCOCCOCCOCCO	inactive
O=C(c1ccccc1)c1ccccc1O	inactive
Cc1c(C(N)=O)cc([N+](=O)[O-])cc1[N+](=O)[O-]	inactive
C=C(C)C1CC=C(C)CC1 (configuration not stated)	inactive
CN(C)CCN(Cc1cccs1)c1ccccn1	inactive
C#C[C@]1(O)CC[C@H]2[C@@H]3CCc4cc(OC)ccc4[C@H]3CC[C@@]21C	inactive
CCC(C)c1ccccc1O (configuration not stated)	inactive
CN(C)C(=N)N=C(N)N	inactive
CCCc1c(OCCCCc2nn[nH]n2)ccc(C(C)=O)c1O	inactive
O=CCCCC=O	inactive
C[Si](C)(C)O[Si](C)(C)C	inactive
Cc1c(OCC(F)(F)F)ccnc1CS(=O)c1nc2ccccc2[nH]1 (configuration not stated)	inactive
OC[C@H]1O[C@@H]2O[C@H]3[C@H](O)[C@@H](O)[C@@H](O[C@H]4[C@H](O)[C@@H](O)[C@@H](O[C@H]5[C@H](O)[C@@H](O)[C@@H](O[C@H]6[C@H](O)[C@@H](O)[C@@H](O[C@H]7[C@H](O)[C@@H](O)[C@@H](O[C@H]8[C@H](O)[C@@H](O)[C@@H](O[C@H]1[C@H](O)[C@H]2O)O[C@@H]8CO)O[C@@H]7CO)O[C@@H]6CO)O[C@@H]5CO)O[C@@H]4CO)O[C@@H]3CO	inactive
Cn1cnc([N+](=O)[O-])c1Sc1ncnc2nc[nH]c12	active
CCCCOCCOCCO	inactive
O=S(=O)(O)c1ccc(O)cc1	inactive
O=C1OC2(c3cc(Br)c(O)c(Br)c3Oc3c2cc(Br)c(O)c3Br)c2c(Cl)c(Cl)c(Cl)c(Cl)c21	inactive
CC(C)=CCC/C(C)=C\CO	inactive

* * *

Assay: qHTS assay to identify small molecule HDAC inhibitors (AID 1259364);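 also: wild-type HCT-116 cells with endogenous class I/II HDAC activity; nearly all actives have a fitted effect of over 45% in size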
Conditions: HCT-116 HDAC-Glo I/II luminescence, 2 h; series mostly up to 92.4 µM
Excerpt: U.S. Tox21 Program National Center for Advancing Translational Sciences [NCATS] NIH Chemical Genomics Center [NCGC] U.S. Environmental Protection Agency [EPA] National Institutes of Environmental Health Sciences [NIEHS] National Toxicology Program [NTP] U.S. Food and Drug Administration [FDA] Tox21 Assay Overview: Histone deacetylases (HDACs) are a group of epigenetic enzymes that regulate gene expression by histone deacetylation. […]
Records with an inconclusive call do not appear. The source made the active and inactive calls. Calls come from the whole dose curve; as a rule, active = well fitted inhibition curve with a large enough effect in the repeat runs; inconclusive = weak or mixed curves; inactive = flat fitted curve, though single readings scatter.
Classes used: YES for active, NO for inactive

Molecule	Assigned label
Nc1ncnc2nc[nH]c12	NO
O=C1OC2(c3cc(Br)c(O)c(Br)c3Oc3c2cc(Br)c(O)c3Br)c2c(Cl)c(Cl)c(Cl)c(Cl)c21	NO
CCC(C)(O)CCCC(C)C (centres undefined)	NO
CC(CCC(=O)O)(c1ccc(O)cc1)c1ccc(O)cc1	NO
O=C(/C=C/c1ccccc1)OCc1ccccc1	NO
COc1cc([C@@H]2c3cc4c(cc3[C@H](O)[C@H]3COC(=O)[C@H]23)OCO4)cc(OC)c1OC	NO
O=C(O)c1ccccc1Nc1cccc(C(F)(F)F)c1	YES
Cc1[nH]c(=O)c(C#N)cc1-c1ccncc1	NO
Nc1ccc(Nc2ccccc2)cc1	NO
Cc1cc2nc3c(=O)[nH]c(=O)nc-3n(C[C@H](O)[C@H](O)[C@H](O)CO)c2cc1C	NO
CCC(C)c1ccccc1O (centres undefined)	NO
COc1ccc(C(=O)CC(=O)c2ccc(C(C)(C)C)cc2)cc1	NO
CC(=O)C1(C)CC2=C(CCCC2(C)C)CC1C (centres undefined)	NO
O=CCCCC=O	NO
Cc1ccc(C)c(O)c1C	NO
Cn1cnc([N+](=O)[O-])c1Sc1ncnc2nc[nH]c12	NO
CC(C)OB(OC(C)C)OC(C)C	NO
CCCCOCCOCCO	NO
C#C[C@]1(O)CC[C@H]2[C@@H]3CCc4cc(OC)ccc4[C@H]3CC[C@@]21C	NO
OC1CCCCCCCCCCC1	NO
Nc1ccc(S(=O)(=O)Nc2cnc3ccccc3n2)cc1	NO
CN(C)CCN(Cc1cccs1)c1ccccn1	NO
CCCCNS(=O)(=O)c1ccccc1	NO
O=C(COc1ccc(Cl)cc1)N1CCN(Cc2ccc3c(c2)OCO3)CC1	NO

* * *

Experiment: Caspase-3/7 induction in HepG2 cells by small molecules, qHTS cell viability counter screen (AID 1346981); also: nearly all actives have a fitted effect of over 30% in size
Settings: CellTiter-Fluor fluorescence, 17 h; series mostly up to 92.4 µM
Records with an inconclusive call do not appear. Active and inactive are the calls of the source. Calls come from the whole dose curve; as a rule, active = well fitted cell-killing curve with a large enough effect in the repeat runs; inconclusive = weak or mixed curves, or effect the other way; inactive = flat fitted curve, though single readings scatter.
Classes used: active, inactive

Compound	Assigned label
CC(=O)C1(C)CC2=C(CCCC2(C)C)CC1C (centres undefined)	inactive
Cc1ccc2c(n1)Oc1ccc(C(C)C(=O)OCC(=O)N(C)C)cc1C2 (centres undefined)	inactive
Nc1ccccc1N	active
CC(C)CC(C)(O)C#CC(C)(O)CC(C)C (centres undefined)	inactive

* * *

Experiment: qHTS RealTime-Glo MT Cell Viability Assay in HepG2 cells - 16 hour (AID 1224885); also: nearly all actives have a fitted effect of over 50% in size
Conditions: RealTime-Glo luminescence; series mostly up to 76.8 µM
Inconclusive results are not listed. Active and inactive are the calls of the source. The call rests on the fitted dose curve; in most records, active means well fitted cell-killing curve with a large enough effect in the repeat runs; inconclusive means weak or mixed curves; inactive means flat fitted curve, though single readings scatter.
Classes used: Y for active, N for inactive

Compound	Assigned label
c1cc(N(CC2CO2)CC2CO2)ccc1OCC1CO1 (stereo unspecified)	N
O=[N+]([O-])c1ccc2c(c1)Cc1ccccc1-2	N
COc1c(Cl)c(Cl)c(Cl)c(Cl)c1Cl	N
Nc1ncn([C@@H]2O[C@H](CO)[C@@H](O)[C@H]2O)c(=O)n1	N
CC(C)OC=O	N
CCCCc1oc2ccccc2c1C(=O)c1cc(I)c(OCCN(CC)CC)c(I)c1	Y
Cc1c(OCC(F)(F)F)ccnc1CS(=O)c1nc2ccccc2[nH]1 (stereo unspecified)	N
c1ccc2cc(Nc3ccc(Nc4ccc5ccccc5c4)cc3)ccc2c1	N
Cc1cc2nc3c(=O)[nH]c(=O)nc-3n(C[C@H](O)[C@H](O)[C@H](O)CO)c2cc1C	N
O=C(Nc1ccc(Cl)cc1)Nc1ccc(Cl)c(Cl)c1	N
Nc1ccc(Cl)cc1Cl	N
CCC(C)OC(=O)c1ccc(O)cc1 (stereo unspecified)	N
C/C=C/C(=O)O	N
Cc1ccc(C(=O)c2cc(O)c(O)c([N+](=O)[O-])c2)cc1	N
COc1ccc(OC)c(C(O)CNC(=O)CN)c1 (stereo unspecified)	N
C=C(C)C(=O)OCCOC(=O)C(=C)C	N
COc1ccccc1/C=C/C=O	N
CC(=O)C1(C)CC2=C(CCCC2(C)C)CC1C (stereo unspecified)	N
NNc1ccc(C(=O)O)cc1	N
CN(C)C(=N)N=C(N)N	N
S=C(NC1CCCCC1)NC1CCCCC1	N
Nc1ccc(Nc2ccccc2)cc1	N
C#C[C@]1(O)CC[C@H]2[C@@H]3CCc4cc(OC)ccc4[C@H]3CC[C@@]21C	N
CC(C)OB(OC(C)C)OC(C)C	N
O=C(c1ccc(OCCN2CCCCC2)cc1)c1c(-c2ccc(O)cc2)sc2cc(O)ccc12	N
O=S(=O)(O)c1ccc(O)cc1	N
CCOC(=O)C(C#N)=C(c1ccccc1)c1ccccc1	N
O=C(/C=C/c1ccccc1)OCc1ccccc1	N
O=C1OC2(c3cc(Br)c(O)c(Br)c3Oc3c2cc(Br)c(O)c3Br)c2c(Cl)c(Cl)c(Cl)c(Cl)c21	N
CCC(C)(O)CCCC(C)C (stereo unspecified)	N
O=CCCCC=O	N
Cc1cccc(C(=O)O)c1	N
c1cc(-c2ccncc2)ccn1	N
CC1=CC2C3CC(C=C3C)C2C1 (stereo unspecified)	N
CC(C)=CCC/C(C)=C\CO	N
CCCCC(CC)COP(=O)(OCC(CC)CCCC)OCC(CC)CCCC (stereo unspecified)	N
Cc1ccc(C)c(O)c1C	N
c1ccncc1	N
O=C(Nc1ccc([N+](=O)[O-])cc1Cl)c1cc(Cl)ccc1O	N
O=C=Nc1ccc(Cc2ccc(N=C=O)cc2)cc1	N
Brc1cc(Oc2cc(Br)c(Br)c(Br)c2Br)c(Br)c(Br)c1Br	N
COC(=O)CCC(=O)OC	N
c1ccc2sc(SSN3CCOCC3)nc2c1	Y
Cc1cccc([N+](=O)[O-])c1C	N
c1ccc(Nc2ccccc2)cc1	N
OCCO	N
